- Tested System: HIV-1 YU2 Env on the cell surface (HIV-1 YU2, UniProt P35961)
- Sequence (P35961 32-843): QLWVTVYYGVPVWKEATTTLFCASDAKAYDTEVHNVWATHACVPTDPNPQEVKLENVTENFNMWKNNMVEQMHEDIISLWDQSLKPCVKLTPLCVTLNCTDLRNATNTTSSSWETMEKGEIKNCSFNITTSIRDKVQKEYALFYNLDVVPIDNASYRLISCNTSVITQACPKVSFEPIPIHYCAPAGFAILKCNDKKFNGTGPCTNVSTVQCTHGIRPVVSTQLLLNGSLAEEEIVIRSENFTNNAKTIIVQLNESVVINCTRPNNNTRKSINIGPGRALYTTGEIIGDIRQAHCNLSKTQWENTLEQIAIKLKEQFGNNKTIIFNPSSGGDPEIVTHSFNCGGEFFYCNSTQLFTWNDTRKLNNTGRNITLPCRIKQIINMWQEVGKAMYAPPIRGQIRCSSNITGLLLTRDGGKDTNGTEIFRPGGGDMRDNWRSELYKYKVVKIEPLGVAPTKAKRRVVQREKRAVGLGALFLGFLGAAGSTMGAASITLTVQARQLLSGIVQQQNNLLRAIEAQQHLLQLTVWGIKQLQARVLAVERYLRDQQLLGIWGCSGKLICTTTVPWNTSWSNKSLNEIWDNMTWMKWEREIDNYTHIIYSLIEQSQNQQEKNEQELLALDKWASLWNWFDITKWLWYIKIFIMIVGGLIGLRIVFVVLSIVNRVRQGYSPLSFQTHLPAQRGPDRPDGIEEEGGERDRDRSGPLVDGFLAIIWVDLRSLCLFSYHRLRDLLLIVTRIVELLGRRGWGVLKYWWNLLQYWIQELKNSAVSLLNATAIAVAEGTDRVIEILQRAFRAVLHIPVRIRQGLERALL
- Experiment: flow cytometry on cells
Readout Label: binding result

PGT 127 IgG (antibody, V domains shown) VH: QPQLQESGPGLVEASETLSLTCTVSGDSTGRCNYFWGWVRQPPGKGLEWIGSLSHCRSYYNTDWTYHNPSLKSRLTISLDTPKNQVFLRLTSVTAADTATYYCARFGGEVLVYRDWPKPAWVDLWGRGTLVTVSS VL: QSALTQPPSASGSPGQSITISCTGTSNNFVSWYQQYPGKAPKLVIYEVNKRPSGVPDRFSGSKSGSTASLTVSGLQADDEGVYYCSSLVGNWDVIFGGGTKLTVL
binds

Attribution: paper PMC3280215
